System: K-562 leukemia
MEASUREMENT_DESCRIPTION: NCI tumour cell line growth inhibition, 48 h

{"COMPOUND": "O=c1c2ccccc2nc2n1NC(c1c(Cl)cccc1Cl)N2c1cccc(Cl)c1 (stereo unspecified)", "TGI": "> 100 µM"}
{"COMPOUND": "C/C(=N\\NC(=S)N1CCCCCC1)c1nccnc1C", "TGI": "> 100 µM"}
{"COMPOUND": "CC(=O)Nc1ccc(/C=C(\\NC(=O)c2ccccc2)c2nc3ccc4c(c3[nH]2)C(=O)c2ccccc2C4=O)cc1", "TGI": "> 100 µM"}
{"COMPOUND": "O=C(O)CC(C(=O)O)c1ccccc1[N+](=O)[O-] (stereo unspecified)", "TGI": "> 100 µM"}
{"COMPOUND": "CN(C)c1nc(N(C)C)nc(N(C)C)n1", "TGI": "> 150 µM"}
{"COMPOUND": "Cc1ccc(-c2c(C#N)c(-c3ccc(Cl)cc3)c(C#N)c(=O)n2NS(=O)(=O)c2ccccc2)cc1", "TGI": "> 100 µM"}
{"COMPOUND": "Cc1ccc(NC(c2ccccc2)c2ccc3cccnc3c2O)cc1 (stereo unspecified)", "TGI": "30 µM"}
{"COMPOUND": "CC(=O)ON(OC(C)=O)c1ccc(C)cc1", "TGI": "> 100 µM"}
{"COMPOUND": "CNc1ccccc1C(=O)N/N=C/C=C/c1ccccc1", "TGI": "> 100 µM"}
{"COMPOUND": "Cn1c(C(N)=O)cc2c1-c1nc(Nc3ccccc3)ncc1CCC2", "TGI": "> 100 µM"}
{"COMPOUND": "CC1=CC=NN2C(=O)[C@H](C)C2C1 (stereo partly specified)", "TGI": "> 100 µM"}
